Here's what we have: IC50 numbers for human glucagon receptor (Homo sapiens (Human)).
A number alone suffices; assume nM.

Request: Given the entry CCC[C@H](c1ccc(C(=O)NCCC(=O)O)cc1)C(c1ccc(Cl)c(Cl)c1)c1csc2c(C#N)cc(Cl)cc12 (stereo partly drawn) [Example 21] , what IC50 was observed with human glucagon receptor (Homo sapiens (Human))?
Response: 0.7

Request: Given the entry CCC[C@H](c1ccc(C(=O)Nc2nnn[nH]2)cc1)C(c1ccc(Cl)cc1)c1csc2c(Br)cc(C)cc12 (stereo partly drawn) [Example 3] , what IC50 was observed with human glucagon receptor (Homo sapiens (Human))?
Response: 2.3

* * *

Here's what we have: IC50 numbers for human glucagon receptor (Homo sapiens (Human)).

{"Compound": "CCCC[C@H](c1ccc(C(=O)NCCC(=O)O)cc1)C(c1ccc(Cl)cc1)c1csc2c(C#N)cc(Cl)cc12 (stereo partly shown) [Example 29]", "Value": "0.4 nM"}
{"Compound": "CCCC[C@H](c1ccc(C(=O)NCCC(=O)O)cc1)C(c1ccc(Cl)cc1)c1csc2c(C#N)cc(Cl)cc12 (stereo partly shown) [Example 32]", "Value": "1 nM"}
{"Compound": "CCC[C@H](c1ccc(C(=O)NCCS(=O)(=O)O)cc1)C(c1ccc(Cl)cc1)c1csc2c(Br)cc(C)cc12 (stereo partly shown)", "Value": "3.4 nM"}
{"Compound": "CCC[C@H](c1ccc(C(=O)NCCC(=O)O)cc1)C(c1ccc(Cl)cc1)c1csc2c(C#N)cc(C)cc12 (stereo partly shown)", "Value": "1.3 nM"}
{"Compound": "CCC[C@H](c1ccc(C(=O)NCCC(=O)O)cc1)C(c1ccc(Cl)cc1)c1sc2ccccc2c1C (stereo partly shown)", "Value": "1.8 nM"}
{"Compound": "CCC[C@H](c1ccc(C(=O)NCCC(=O)O)cc1)C(c1ccc(Cl)cc1)c1c(C)sc2c(C#N)cc(Cl)cc12 (stereo partly shown)", "Value": "7.8 nM"}

Consider the additional compound presented here.
Request: Given the entry CCC[C@H](c1ccc(C(=O)NCc2nn[nH]n2)cc1)C(c1ccc(Cl)cc1)c1csc2c(Br)cc(C)cc12 (stereo partly shown) , what IC50 was observed with human glucagon receptor (Homo sapiens (Human))?
Response: 2.5 nM
